- test_system: UniProtKB Q9NYK1
- Sequence (Q9NYK1 27-1049): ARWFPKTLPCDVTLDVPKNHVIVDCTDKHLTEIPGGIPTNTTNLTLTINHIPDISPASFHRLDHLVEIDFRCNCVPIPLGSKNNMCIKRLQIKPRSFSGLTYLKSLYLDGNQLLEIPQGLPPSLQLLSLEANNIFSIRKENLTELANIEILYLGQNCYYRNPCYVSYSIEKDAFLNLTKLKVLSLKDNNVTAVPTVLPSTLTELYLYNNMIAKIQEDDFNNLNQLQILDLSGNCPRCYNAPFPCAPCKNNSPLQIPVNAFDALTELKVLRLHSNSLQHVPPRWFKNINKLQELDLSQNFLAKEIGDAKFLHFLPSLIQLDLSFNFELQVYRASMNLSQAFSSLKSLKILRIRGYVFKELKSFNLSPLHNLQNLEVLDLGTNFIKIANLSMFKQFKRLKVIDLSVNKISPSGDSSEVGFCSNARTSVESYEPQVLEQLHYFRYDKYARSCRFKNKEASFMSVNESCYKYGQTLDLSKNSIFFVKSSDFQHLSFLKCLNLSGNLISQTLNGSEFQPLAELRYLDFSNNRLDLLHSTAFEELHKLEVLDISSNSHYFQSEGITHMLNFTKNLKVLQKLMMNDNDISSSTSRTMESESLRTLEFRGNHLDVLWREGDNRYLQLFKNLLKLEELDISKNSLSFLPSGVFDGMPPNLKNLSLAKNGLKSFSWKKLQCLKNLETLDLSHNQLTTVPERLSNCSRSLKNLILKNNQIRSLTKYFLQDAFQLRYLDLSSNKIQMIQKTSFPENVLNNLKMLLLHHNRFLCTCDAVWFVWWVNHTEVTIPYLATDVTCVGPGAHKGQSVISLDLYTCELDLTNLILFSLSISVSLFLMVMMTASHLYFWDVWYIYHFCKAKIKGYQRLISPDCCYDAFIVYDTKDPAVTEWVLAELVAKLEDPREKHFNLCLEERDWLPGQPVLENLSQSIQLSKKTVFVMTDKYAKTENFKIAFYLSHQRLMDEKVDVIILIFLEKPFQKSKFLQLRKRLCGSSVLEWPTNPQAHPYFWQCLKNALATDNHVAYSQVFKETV
- protocol_details: HEK293-Blue-hTLR-7 cells assay
- measurement_parameters: HEK293-Blue-hTLR7 cells, R848 stimulation, 20 hrs, SEAP reporter; read-out: HEK/hTLR7 IC50
measurement_name: IC50 (nM)

Recorded results for 2 molecules are shown here.
CO[C@@H]1CN(c2ccc3c(c2)CN2[C@H](C)CN(c4ccc(C#N)n5nccc45)C[C@H]32)CC[C@@H]1N [Example 105]
4.9
C[C@@H]1CN(c2ccc(C#N)n3nccc23)C[C@@H]2c3ccc(N4C[C@@H](N)[C@H](O)C4)cc3CN12 [Example 110]
19

P. C[C@@H]1CN(c2ccc(C#N)c3ncccc23)C[C@@H]2c3ccc(N4C[C@@H](F)[C@@H](N)C4)cc3CN12 [Example 46]
Q. C[C@@H]1CN(c2ccc3c(c2)CN2[C@H](C)CN(c4ccc(C#N)n5nccc45)C[C@H]32)CCN1 [Example 97]
In: Lab notebook, comparison: P versus Q , higher IC50 goes to which? Respond using the label that marks the chosen record.
Out: P

* * *

- test_system: human TLR9 (Homo sapiens)
- protocol_details: HEK293-Blue-hTLR-9 cells assay
- measurement_parameters: HEK293-Blue-hTLR9 cells, ODN2006 stimulation, 20 hrs, SEAP reporter; read-out: HEK/hTLR9 IC50
measurement_name: IC50 (nM)

Take a look at these entries with their results.
C[C@@H]1CN(c2ccc(C#N)c3ncccc23)C[C@@H]2c3ccc(C(=O)N4CCC(C)(N)CC4)cc3CN12
165
C[C@@H]1CN(c2ccc(C#N)c3ncccc23)C[C@@H]2c3ccc(N4CC5(CNCCO5)C4)cc3CN12
111
C[C@@H]1CN(c2ccc(C#N)c3ncccc23)C[C@@H]2c3ccc(N4CCNC[C@](C)(O)C4)cc3CN12 [Example 55A]
111
C[C@@H]1CN(c2ccc(C#N)c3ncccc23)C[C@@H]2c3ccc(NCCN(C)C)cc3CN12
55.8

1. CO[C@@H]1CNC[C@H]1Nc1ccc2c(c1)CN1[C@H](C)CN(c3ccc(C#N)c4ncccc34)C[C@H]21
2. C[C@@H]1CN(c2ccc(C#N)n3nccc23)C[C@@H]2c3ccc(N4C[C@@H](N)[C@](C)(O)C4)cc3CN12
In: In terms of reported IC50, does 1 or 2 have the smaller number? State your choice using its label.
Out: 1

* * *

- test_system: human TLR9 (Homo sapiens)
- Sequence (Q9NR96 26-1032): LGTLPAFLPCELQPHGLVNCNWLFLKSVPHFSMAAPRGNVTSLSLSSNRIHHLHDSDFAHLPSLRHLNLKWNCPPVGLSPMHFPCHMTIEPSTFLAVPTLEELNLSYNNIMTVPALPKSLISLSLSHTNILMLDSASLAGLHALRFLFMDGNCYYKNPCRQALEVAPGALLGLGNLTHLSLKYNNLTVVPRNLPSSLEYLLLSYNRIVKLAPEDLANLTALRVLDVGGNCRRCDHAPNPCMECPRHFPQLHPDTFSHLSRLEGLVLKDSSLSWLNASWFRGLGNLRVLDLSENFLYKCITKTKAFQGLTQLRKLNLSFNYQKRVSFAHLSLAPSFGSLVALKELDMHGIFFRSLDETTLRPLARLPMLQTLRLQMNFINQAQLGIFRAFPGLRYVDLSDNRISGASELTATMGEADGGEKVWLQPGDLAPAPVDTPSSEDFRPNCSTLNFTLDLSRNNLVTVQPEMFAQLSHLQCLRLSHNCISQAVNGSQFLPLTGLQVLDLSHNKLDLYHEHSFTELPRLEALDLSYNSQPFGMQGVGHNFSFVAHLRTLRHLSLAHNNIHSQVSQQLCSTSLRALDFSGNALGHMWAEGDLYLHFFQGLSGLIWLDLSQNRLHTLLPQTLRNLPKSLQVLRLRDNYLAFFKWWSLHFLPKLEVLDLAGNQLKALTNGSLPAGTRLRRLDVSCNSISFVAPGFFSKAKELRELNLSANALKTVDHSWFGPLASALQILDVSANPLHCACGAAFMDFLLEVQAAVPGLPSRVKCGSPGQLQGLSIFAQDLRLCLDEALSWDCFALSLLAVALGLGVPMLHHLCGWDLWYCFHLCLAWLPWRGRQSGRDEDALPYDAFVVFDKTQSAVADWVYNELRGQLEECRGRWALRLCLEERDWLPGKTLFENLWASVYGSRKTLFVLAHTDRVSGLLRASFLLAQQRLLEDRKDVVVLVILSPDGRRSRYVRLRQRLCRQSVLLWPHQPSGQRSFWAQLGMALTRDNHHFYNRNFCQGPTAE
- protocol_details: HEK293-Blue-hTLR-9 cells assay
- measurement_parameters: HEK293-Blue-hTLR9 cells, ODN2006 stimulation, 20 hrs, SEAP reporter; read-out: HEK/hTLR9 IC50
pIC50: −log10 of the molar value.
measurement_name: pIC50

C[C@@H]1CN(c2ccc(C#N)c3ncccc23)C[C@@H]2c3ccc(N4C[C@@H](N)[C@](C)(O)C4)cc3CN12 [Example 45]
7.11
C[C@@H]1CN(c2ccc(C#N)c3ncccc23)C[C@@H]2c3ccc(N4CCN[C@H](CO)C4)cc3CN12
7.15
CO[C@@H]1CN(c2ccc3c(c2)CN2C3CN(c3ccc(C#N)c4ncccc34)C[C@H]2C)C[C@@H]1N (relative stereo)
7.09
C[C@@H]1CN(c2ccc(C#N)c3ncsc23)C[C@@H]2c3ccc(N[C@H]4CNC[C@H]4F)cc3CN12
7.08
C[C@@H]1CN(c2ccc(C#N)c3ncccc23)C[C@@H]2c3ccc(N[C@@H]4CCCNC4)cc3CN12
7.02
C[C@@H]1CN(c2ccc(C#N)c3ncccc23)C[C@@H]2c3ccc(N4CC(N)C5(COC5)C4)cc3CN12 (stereo partly shown)
6.94
C[C@@H]1CN(c2ccc(C#N)c3ncccc23)C[C@@H]2c3ccc(N[C@@H]4CNC[C@H]4F)cc3CN12
7.00

* * *

- protocol_details: Human microsomal stability assay
- Format: in vitro ADME
- measurement_parameters: human liver microsomes 0.5 mg/mL, 37° C., pH 7.4, NADPH regenerating system, 0-30 minutes
measurement_name: CL (h) (mL/min/kg)

C[C@@H]1CN(c2ccc(C#N)c3nccnc23)C[C@@H]2c3ccc(N4CCNCC4)cc3CN12
7.8
C[C@@H]1CN(c2ccc(C#N)c3ncccc23)C[C@@H]2c3ccc(N4CC5(CN(C)C5)C4)cc3CN12
6.2
C[C@@H]1CN(c2ccc(C#N)c3ncccc23)C[C@@H]2c3ccc(N4CCOCC(N)C4)cc3CN12 (some centres unmarked)
8.9
N#Cc1ccc(N2CCN3Cc4cc(N5CCNCC5)ccc4C3C2)c2scnc12 (centres unmarked)
6.2
CO[C@@H]1CNC[C@@H]1Nc1ccc2c(c1)CN1[C@H](C)CN(c3ccc(C#N)c4ncccc34)C[C@H]21
7.4
CO[C@@H]1CN(c2ccc3c(c2)CN2C3CN(c3ccc(C#N)c4ncccc34)C[C@H]2C)C[C@@H]1N (relative stereo)
6.2
C[C@@H]1CN(c2ccc(C#N)c3ncccc23)C[C@@H]2c3ccc(N4C[C@H](N)[C@@H](O)C4)cc3CN12 [Example 40A]
7.0
C[C@@H]1CN(c2ccc(C#N)c3ncccc23)C[C@@H]2c3ccc(N4C[C@@H](N)[C@H](F)C4)cc3CN12
8.9
C[C@@H]1CN(c2ccc(C#N)c3ncccc23)C[C@@H]2c3ccc(N4CC5(CCN5)C4)cc3CN12
6.5
C[C@@H]1CN(c2ccc(C#N)c3ncccc23)C[C@@H]2c3ccc(NC4CNC4)cc3CN12
8.7
C[C@@H]1CN(c2ccc(C#N)c3ncccc23)C[C@@H]2c3ccc(N4C[C@H](N)[C@@](C)(O)C4)cc3CN12 [Example 45B]
6.2
C[C@@H]1CN(c2ccc(C#N)c3ncsc23)C[C@@H]2c3ccc(N4CCNCC4)cc3CN12
6.6
C[C@H]1CN(c2ccc(C#N)c3ncccc23)C[C@H]2c3ccc(N4CCNCC4)cc3CN12
6.8
C[C@@H]1CN(c2ccc(C#N)c3ncccc23)C[C@@H]2c3ccc(OCCN(C)C)cc3CN12
8.0
Cc1ccc(N2C[C@@H](C)N3Cc4cc(N[C@H]5CNC[C@H]5F)ccc4[C@H]3C2)c2cccnc12
6.2
C[C@@H]1CN(c2ccc(C#N)n3nccc23)C[C@@H]2c3ccc(N4CCC(C)(N)CC4)cc3CN12
8.0
C[C@@H]1CN(c2ccc(C#N)c3ncccc23)C[C@@H]2c3cc(F)c(N4CC5CNCC(C4)O5)cc3CN12
7.8
CO[C@H]1CNC[C@@H]1Nc1ccc2c(c1)CN1[C@H](C)CN(c3ccc(C#N)c4ncccc34)C[C@H]21
7.5
C[C@@H]1CN(c2ccc(C#N)c3ncccc23)C[C@@H]2c3ccc(N4CCNC[C@H]4CO)cc3CN12
6.2
C[C@@H]1CN(c2ccc(C#N)c3ncccc23)C[C@@H]2c3ccc(C(=O)N4C[C@@H]5C[C@H]4CN5)cc3CN12
8.0
N#Cc1ccc(N2CCN3Cc4cc(N5CCNCC5)ccc4C3C2)c2cccnc12 (centres unmarked)
6.2
C[C@@H]1CN(c2ccc(C#N)c3ncccc23)C[C@@H]2c3ccc(NCCN(C)C)cc3CN12
6.2
C[C@@H]1CN(c2ccc(C#N)c3ncccc23)C[C@@H]2c3ccc(N4CCNC[C@H](O)C4)cc3CN12 [Example 53A]
8.6
C[C@@H]1CN(c2ccc(C#N)n3nccc23)C[C@@H]2c3ccc(N4CC[C@@H](N)C4)cc3CN12
6.2
C[C@@H]1CN(c2ccc(C#N)c3ncccc23)C[C@@H]2c3ccc(C(=O)N4CCNCC4)cc3CN12
7.7
[2H]c1ccc2c(N3C[C@@H](C)N4Cc5cc(N6CC(C)(N)C6)ccc5[C@H]4C3)ccc(C#N)c2n1
6.4
[2H]c1ccc2c(N3C[C@@H](C)N4Cc5cc(N6CC7CNCC(C6)O7)ccc5[C@H]4C3)ccc(C#N)c2n1
8.4
C[C@@H]1CN(c2ccc(C#N)c3ncccc23)C[C@@H]2c3ccc(OC4CNC4)cc3CN12
7.7
C[C@@H]1CN(c2ccc(C#N)c3ncccc23)C[C@@H]2c3ccc(N4CCOC5CNCC54)cc3CN12 (some centres unmarked)
8.1
